Attribution: ChEMBL document CHEMBL1135912

# test target: Sodium-dependent dopamine transporter (Homo sapiens) (UniProt Q01959)
# Sequence (Q01959 whole entry): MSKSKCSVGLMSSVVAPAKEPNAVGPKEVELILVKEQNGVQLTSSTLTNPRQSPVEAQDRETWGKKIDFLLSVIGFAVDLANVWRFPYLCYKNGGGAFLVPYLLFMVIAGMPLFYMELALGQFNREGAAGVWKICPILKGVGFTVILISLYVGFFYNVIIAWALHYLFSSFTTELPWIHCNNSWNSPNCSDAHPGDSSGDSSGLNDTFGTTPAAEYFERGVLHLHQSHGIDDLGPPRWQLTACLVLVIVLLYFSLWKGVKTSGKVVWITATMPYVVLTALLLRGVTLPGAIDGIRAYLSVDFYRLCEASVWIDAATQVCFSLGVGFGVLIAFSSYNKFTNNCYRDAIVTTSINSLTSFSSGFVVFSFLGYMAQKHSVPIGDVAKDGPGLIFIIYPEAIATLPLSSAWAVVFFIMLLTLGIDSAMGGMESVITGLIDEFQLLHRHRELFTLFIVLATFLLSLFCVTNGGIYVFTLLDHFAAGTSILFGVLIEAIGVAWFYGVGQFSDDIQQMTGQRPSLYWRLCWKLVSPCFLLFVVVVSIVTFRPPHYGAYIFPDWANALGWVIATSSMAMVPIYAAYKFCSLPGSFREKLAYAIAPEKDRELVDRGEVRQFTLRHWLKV
# method description: Inhibition of [3H]dopamine uptake in HEK293 cells expressing recombinant Dopamine transporter
# Type: cell-based
// thresholds for Log 1/C classes: bucket A: < 6; bucket B: ≥ 6 and < 7; bucket C: ≥ 7

Task item: Category lookup for the compound `Cc1ccc(CN(CCN2CCN(CCCc3ccccc3)CC2)c2ccccc2)cc1`
Reply: bucket A

Task item: Note: place this compound into its band. Item: `COc1ccc(CN(CCN2CCN(CCCc3ccccc3)CC2)c2ccccn2)cc1`
Reply: bucket B

Task item: Which category does the recorded Log 1/C put `Fc1ccc(C(OCCN2CCN(CCCc3ccc(Cl)cc3)CC2)c2ccc(F)cc2)cc1` in?
Reply: bucket C

More entries:
Task item: Which class is correct for the following compound? `c1ccc(CCCN2CCN(CCCCN(Cc3ccccc3)c3ccccc3)CC2)cc1`
Reply: bucket A

Task item: Textbook exercise: identify the category of the compound given here, `COc1ccc(/C=C/CN2CCN(CCOC(c3ccc(F)cc3)c3ccc(F)cc3)CC2)cc1` , according to its measured value.
Reply: bucket B

Task item: Looking at `O=C(/C=C/c1ccccc1Cl)N1CCN(CCOC(c2ccc(F)cc2)c2ccc(F)cc2)CC1` , which class would you pick?
Reply: bucket A

* * *

# test target: UniProt:P31645
# method description: Inhibition of [125I]RTI-55 binding to human SERT in clonal cells
# Type: cell-based
I'd be grateful if you could share measured pKD for these entries.
Answers are plain numbers.

Task item: Consider the compound `COc1ccc(/C=C/C(=O)N2CCN(CCOC(c3ccc(F)cc3)c3ccc(F)cc3)CC2)cc1` and give its measured pKD.
Reply: 6.85

// batch mode: one pKD value per listed entry
1. O=C(CCCCN1CCN(CCCc2ccccc2)CC1)N(Cc1ccccc1)c1ccccc1
2. Clc1ccc(C(OCCN2CCN(C/C=C/c3ccccc3)CC2)c2ccc(Cl)cc2)cc1
3. Fc1ccc(CN(CCCN2CCN(CCCc3ccccc3)CC2)c2ccccn2)cc1
4. COc1cccc(C(OCCN2CCN(C/C=C/c3ccccc3)CC2)c2cccc(Br)c2)c1 (stereo not given)

Reply:
6.69
6.48
6.55
6.13

* * *

# test target: Sodium-dependent serotonin transporter (Homo sapiens)
# method description: Inhibition of [125I]RTI-55 binding to human SERT in clonal cells
# Assay type: cell-based
Label label 0 if pKD falls below 6; label label 1 in every other case.

Task item: Tell me whether pKD is at least 6 here: `C(=C\c1ccccc1)/CN1CCN(CCN(Cc2ccccc2)c2ccccc2)CC1`
Reply: label 1

Task item: Check if pKD >= 6 (inclusive). Item: `Brc1ccc(CN(CCN2CCN(CCCc3ccccc3)CC2)c2ccc(Br)cc2)cc1`
Reply: label 0

Task item: Decide: is the reported value of pKD for `c1ccc(CCCN2CCN(CCCCN(Cc3ccccc3)c3ccccc3)CC2)cc1` equal to or greater than 6?
Reply: label 1

* * *

Could you please report measured pKD for the items listed next?
# test target: Sodium-dependent serotonin transporter (Homo sapiens) (UniProt P31645)
# Sequence (P31645 whole entry, looked up): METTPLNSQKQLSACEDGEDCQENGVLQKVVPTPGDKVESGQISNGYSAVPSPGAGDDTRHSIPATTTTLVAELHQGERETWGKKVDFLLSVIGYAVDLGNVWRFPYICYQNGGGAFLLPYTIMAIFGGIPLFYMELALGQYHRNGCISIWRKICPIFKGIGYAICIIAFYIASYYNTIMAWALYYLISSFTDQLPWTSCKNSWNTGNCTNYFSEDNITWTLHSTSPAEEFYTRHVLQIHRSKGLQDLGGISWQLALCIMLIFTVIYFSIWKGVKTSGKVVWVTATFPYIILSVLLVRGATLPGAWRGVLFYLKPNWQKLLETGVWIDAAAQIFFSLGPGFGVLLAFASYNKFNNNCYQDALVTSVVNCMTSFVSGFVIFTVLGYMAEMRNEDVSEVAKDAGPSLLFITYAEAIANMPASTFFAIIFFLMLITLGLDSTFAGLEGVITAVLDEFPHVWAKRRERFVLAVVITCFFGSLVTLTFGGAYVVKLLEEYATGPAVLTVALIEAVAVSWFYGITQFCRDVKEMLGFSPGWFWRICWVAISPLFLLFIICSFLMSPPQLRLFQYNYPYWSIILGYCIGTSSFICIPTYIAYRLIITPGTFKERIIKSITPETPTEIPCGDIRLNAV
# method description: Inhibition of [125I]RTI-55 binding to human SERT in clonal cells
# Format: cell-based

A selection of reference data follows.
Task item: May I ask what pKD has been recorded for `COc1ccc(CN(CCN2CCN(C/C=C/c3ccccc3)CC2)c2ccccn2)cc1` ?
Reply: 6.64

Task item: Looking for the measured pKD of `Fc1ccc(CN(CCCN2CCN(CCCc3ccccc3)CC2)c2ccc(F)cc2)cc1` , can you help?
Reply: 6.48

Give pKD for each listed item.
1. Fc1ccc(C(OCCN2CCN(C/C=C/c3ccccc3)CC2)c2ccc(F)cc2)cc1 (stereo in doubt; 15)
2. c1ccc(CCCN2CCN(CCN(Cc3ccccc3)c3ccccn3)CC2)cc1
3. Fc1ccc(C(OCCN2CCN(C/C=C/c3ccccc3)CC2)c2ccc(F)cc2)cc1 (stereo in doubt; 24)

Reply:
1: 6.44; 2: 6.28; 3: 7.79

* * *

# test target: Sodium-dependent serotonin transporter (Homo sapiens)
# method description: Inhibition of [125I]RTI-55 binding to human SERT in clonal cells
# Type: cell-based
Would you mind telling me the reported pKD of each entry?
One number for each entry.

Task item: Requested read-out: pKD. Entry: `COc1ccc(CN(CCCN2CCN(CCCc3ccccc3)CC2)c2ccccn2)cc1`
Reply: 7.23

Task item: Give its pKD value. Item: `Cc1ccc(/C=C/C(=O)N2CCN(CCOC(c3ccc(F)cc3)c3ccc(F)cc3)CC2)cc1`
Reply: 6.71

Task item: Could you tell me which pKD is on file for `O=C(CN1CCN(CCCc2ccccc2)CC1)N(Cc1ccccc1)c1ccccc1` ?
Reply: 5.54

Provide the reported pKD of each entry below, same order.
1. Fc1ccc(CCCN2CCN(CCOC(c3ccccc3)c3ccc(F)cc3)CC2)cc1 (stereo not given)
2. Cc1ccc(C(OCCN2CCN(C/C=C/c3ccccc3)CC2)c2ccccc2)cc1 (stereo not given)

Reply:
[6.33, 5.95]

* * *

# test target: UniProtKB P31645
# method description: Inhibition of [125I]RTI-55 binding to human SERT in clonal cells
# Type: cell-based
quantity kind: pKD

Task item: What pKD value was documented for this compound, Fc1ccc(C(OCCN2CCN(C/C=C/c3ccccc3)CC2)c2ccccc2)cc1 (centres undefined) ?
Reply: 6.67

Task item: Would you kindly share the measured pKD for `Cc1ccc(CN(CCN2CCN(CCCc3ccccc3)CC2)c2ccccc2)cc1` ?
Reply: 6.09

For each of the compounds below, note its pKD.
1. COc1ccc(N(CCN2CCN(C/C=C/c3ccccc3)CC2)Cc2ccccc2)cc1
2. Fc1ccc(C(OCCN2CCN(C/C=C/c3ccccc3)CC2)c2ccc(Cl)cc2Cl)cc1 (centres undefined)
3. O=C(/C=C/c1ccc(Cl)cc1)N1CCN(CCOC(c2ccc(F)cc2)c2ccc(F)cc2)CC1
4. O=C(/C=C/c1c(Cl)cccc1Cl)N1CCN(CCOC(c2ccc(F)cc2)c2ccc(F)cc2)CC1

Reply:
[6.55, 6.28, 7.14, 6.68]

Give me pKD for each of these compounds, listed below.
1. Fc1ccc(C(OCCN2CCN(C/C=C/c3ccccc3)CC2)c2ccc(Cl)cc2)cc1 (centres undefined)
2. Fc1ccc(/C=C/CN2CCN(CCOC(c3ccc(F)cc3)c3ccc(F)cc3)CC2)cc1
3. Fc1ccc(/C=C/CN2CCN(CCOC(c3ccccc3)c3ccccc3)CC2)cc1

Reply:
6.72
6.64
5.88

* * *

# test target: UniProt:P31645
# method description: Inhibition of [125I]RTI-55 binding to human SERT in clonal cells
# Format: cell-based
quantity kind: pKD

Please review the following examples before continuing.
Task item: Hi! What's the reported pKD for `COc1ccc(OC)c(/C=C/CN2CCN(CCOC(c3ccc(F)cc3)c3ccc(F)cc3)CC2)c1` on UniProt:P31645?
Reply: 6.74

Task item: Requested read-out pKD, target or system UniProt:P31645, entry `COc1ccc(CN(CCN2CCN(CCCc3ccccc3)CC2)c2ccccn2)cc1`
Reply: 6.79

# ---- query compound ----
Task item: Find pKD (UniProt:P31645) for the entry `O=C(/C=C/c1ccccc1Cl)N1CCN(CCOC(c2ccc(F)cc2)c2ccc(F)cc2)CC1`
Reply: 6.77

* * *

Answer each item with its documented pKD.
# test target: Sodium-dependent serotonin transporter (Homo sapiens) (UniProt P31645)
# method description: Inhibition of [125I]RTI-55 binding to human SERT in clonal cells
# Assay type: cell-based
Numbers only.

Task item: Item `O=C(CCCN1CCN(CCCc2ccccc2)CC1)N(Cc1ccccc1)c1ccccc1` has what recorded pKD?
Reply: 6.28

Task item: I would be grateful if you could share the reported pKD for `COc1ccc(N(CCN2CCN(CCCc3ccccc3)CC2)Cc2ccccc2)cc1` .
Reply: 6.59

Task item: Quick one: pKD of `Fc1ccc(C(OCCN2CCN(CCCc3ccc(Cl)cc3)CC2)c2ccc(F)cc2)cc1` ?
Reply: 6.81

Task item: Item Fc1ccc(/C=C/CN2CCN(CCOC(c3ccccc3)c3ccc(F)cc3)CC2)cc1 (stereo not given) has what recorded pKD?
Reply: 6.7

We next turn to a different compound, shown below.
Task item: So what's the measured pKD for this one? `c1ccc(CCCN2CCN(CCCCCN(Cc3ccccc3)c3ccccc3)CC2)cc1`
Reply: 6.63

* * *

# test target: Sodium-dependent serotonin transporter (Homo sapiens) (UniProt P31645)
# method description: Inhibition of [125I]RTI-55 binding to human SERT in clonal cells
# Format: cell-based
quantity kind: pKD
Answers are plain numbers.

Field: example entries. Status: answers known.
Task item: So what's the measured pKD for this one? `O=C(CCCN1CCN(CCCc2ccccc2)CC1)N(Cc1ccccc1)c1ccccn1`
Reply: 5.88

Task item: Would you mind telling me what pKD value was observed for `Fc1ccc(C(OCCN2CCN(C/C=C/c3ccc(Cl)cc3)CC2)c2ccc(F)cc2)cc1` ?
Reply: 6.09

Task item: Could you tell me which pKD is on file for `Fc1ccc(CN(CCN2CCN(CCCc3ccccc3)CC2)c2ccccn2)cc1` ?
Reply: 6.64

Task item: Name the recorded pKD for `COc1ccc(/C=C/CN2CCN(CCOC(c3ccc(F)cc3)c3ccc(F)cc3)CC2)cc1` .
Reply: 6.43

Could you report pKD for every entry in the following list?
1. Fc1ccc(C(OCCN2CCN(CCCc3ccccc3)CC2)c2ccccc2)cc1 (stereo not given)
2. Fc1ccc(C(OCCN2CCN(C/C=C/c3ccccc3)CC2)c2ccc(F)cc2)cc1 (stereo in doubt; 26)
3. Fc1ccc(CN(CCN2CCN(CCCc3ccccc3)CC2)c2ccc(F)cc2)cc1
4. Fc1ccc(C(OCCN2CCN(C/C=C/Cc3ccccc3)CC2)c2ccc(F)cc2)cc1
5. C(=C\c1ccccc1)/CN1CCN(CCN(Cc2ccccc2)c2ccccn2)CC1

Reply:
1. 6.21
2. 6.02
3. 6.57
4. 7.14
5. 6.17

Task item: Suppose we examine the compound `CN(CCc1ccccc1)CCN1CCN(CCCc2ccccc2)CC1` ; what pKD value has been reported?
Reply: 5.58
